Ref: PubChem BioAssay (NCI)

Assay: NCI Yeast Anticancer Drug Screen. Data for the sgs1 mgt1 strain (AID 161);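 further: 0% = growth of cultures given vehicle only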
Details: S. cerevisiae sgs1 mgt1 strain, at 50.0 µM, hits give high values
The panel holds about 79,000 compounds, 15% with a hit somewhere; the sample as a whole holds those more often. Active and inactive are the calls of the source. No stated cut-off is given here; in the data, active means growth inhibition above about 70%; inactive means the rest.
RECORDED_METRIC: growth inhibition

1. C=CCc1cc(N)ccc1O | 11.8% (inactive)
2. OCCN(/N=C\c1ccc2ccccc2c1)C1=NCCN1 | -22.1% (inactive)
3. Clc1ccccc1N=NNc1ccccc1Cl | 7.05% (inactive)
4. Cc1ccc2sc3nc4ccccc4nc3c2c1 | -1.95% (inactive)
5. Oc1ccccc1-c1cc(-c2ccccc2)nc(NCCCCCCNc2nc(-c3ccccc3)cc(-c3ccccc3O)n2)n1 | -12.1% (inactive)
6. CCOC(=O)c1c(NN)n[nH]c1C | 24.4% (inactive)
7. O=C(O)c1ccc(S(=O)(=O)c2ccccc2[N+](=O)[O-])cc1 | -35.8% (inactive)
8. C/C(=C\CNc1ncnc2c1ncn2C1CCCCO1)COP(=O)(O)O (centres undefined) | 19.6% (inactive)
9. CCC(=S)Nc1ccc(Cl)cc1 | -34.5% (inactive)

* * *

Assay: NCI Yeast Anticancer Drug Screen. Data for the rad50 strain (AID 155);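 further: 0% = growth of vehicle-only cultures of the same strain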
Details: S. cerevisiae rad50 strain growth inhibition; at 50.0 µM; hits give high values
Procedure: Growth inhibition of yeast strains with defined genetic alterations is measured as a screen for potential anti-cancer activity. Selected strains with alterations in DNA damage repair or cell cycle control were exposed to compounds and growth inhibition was measured relative to vehicle treated controls. The strain used in this assay is rad50
This is part of a sample that, as a whole, favours compounds with a hit. Of some 79,000 tested, about 15% had one in any assay.
RECORDED_METRIC: growth inhibition (%)

1. O=C(O)c1cc(Cl)cc([N+](=O)[O-])c1 | 41.1
2. O=[N+]([O-])c1ccccc1S(=O)(=O)c1cc(Cl)cc2c1NCCC2 | 16.8
3. O=C1N=C2C=CC=CN2CC1O (centres undefined) | -0.4
4. CCOc1ccc2nc(NC(=O)C(=O)C3C(=O)C(CC4C(=O)c5ccccc5C4=O)C(=O)CC3(C)C)sc2c1 (centres undefined) | 31.4
5. CCCCn1cnc2ccc3[nH]c(C)nc3c2c1=O | 29.4
6. CCc1ccc(NC(=O)CCC(=O)O)cc1 | -1.15
7. NCC(=O)N[C@H]1c2ccsc2/C(=N/O)[C@H]1O | 3.1
8. CC1CN(Cc2ccccc2)CCC1N1CCCC1 (centres undefined) | 24.8
9. Nc1nc(SCC(=O)O)nc2nc[nH]c12 | -0.15
10. CCOC(=O)c1cnc(NCCCCCCNc2ncc(C(=O)OCC)c(=O)[nH]2)[nH]c1=O | 29.7
11. NC(=O)c1cc(OCc2ccccc2)nc2nc(Cl)nc(N)c12 | -5.05
12. COc1ccc2nc(C3CCCCC3C(=O)O)cc(C)c2c1 (centres undefined) | -9.2
13. Cc1ccc(S(=O)(=O)NC(=O)C#CCOC2CCCCO2)cc1 (centres undefined) | 8.7
14. CCc1ccc(NC(=O)Nc2cccc(Cl)c2)cc1 | -5.8

* * *

Experiment: NCI Yeast Anticancer Drug Screen. Data for the sgs1 mgt1 strain (AID 161);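 further: 0% = growth of cultures given vehicle only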
Details: S. cerevisiae sgs1 mgt1 strain, at 50.0 µM, hits give high values
Experimental: Growth inhibition of yeast strains with defined genetic alterations is measured as a screen for potential anti-cancer activity. Selected strains with alterations in DNA damage repair or cell cycle control were exposed to compounds and growth inhibition was measured relative to vehicle treated controls. The strain used in this assay is sgs1 mgt1
The panel holds about 79,000 compounds, 15% with a hit somewhere; the sample as a whole holds those more often.
Consider the following molecules and their measured growth inhibition readings.
RECORDED_METRIC: growth inhibition (%)

1. CCCCCCCCOc1ccc(C=Nc2ccc(C)cc2)cc1 | 0.45
2. COC(=O)c1ccccc1C1CN=NC12Cc1ccc3c(c1C2=O)CCC3 (stereo unspecified) | 1.75
3. COc1ccc(C(=O)C(CN(C)C)CN(C)C)cc1OC | -14.1
4. O=C(CN1C(=O)c2ccccc2C1=O)C(O)CN1C(=O)c2ccccc2C1=O (stereo unspecified) | 2.05
5. COc1ccc(S(=O)(=O)O)cc1NS(=O)(=O)c1ccc(C)cc1 | 15.9
6. Cc1cc2c(cc1C)NC1=C(N2)OC(c2ccc(Cl)cc2)C1=O (stereo unspecified) | 44.6
7. CCCCCCC(=O)N1SC(NC(=O)OC)=Nc2ccccc21 | 27.6
8. CC1=NNC(=O)CC1C(O)c1ccc(F)cc1 (stereo unspecified) | -10.1
9. Nc1ccc(C(=O)CC(=O)c2cccc([N+](=O)[O-])c2)cc1 | 39.4
10. CC(C)CCNCCC(C)C | -2.85
11. O=C1CCCC2=C1CC1=C(CCCC1=O)N2c1cccc2ccccc12 | 12.7
